# IC50 against SYK kinase (Homo sapiens, UniProt P43405), merged from multiple literature sources
Answers are plain numbers, in nM.

CCS(=O)(=O)Nc1n[nH]c2c1CCCn1cc(C(=O)NCCOC)cc1-2 :: 3150
CC(C)(C)c1cc(NC(=O)Nc2ccc(OCc3ccnc(Nc4cncc(C5CC5)n4)c3)c3ccccc23)n(-c2ccc(O)cc2)n1 :: 4260
CN1CCN(S(=O)(=O)c2ccc(Nc3nc4ccc(-c5cn[nH]c5)cc4n(C)c3=O)cc2)CC1 :: 26

Lab note: next molecule to report on.
QUERY: Query IC50 for N[C@H]1CCCC[C@H]1Nc1nc(Nc2cccc3ncccc23)c2c(=O)[nH]ncc2c1F
RESULT: 44
